Value source: PubChem BioAssay AID1159580

experiment: chemical genetic growth profiling, strain panel (AID 1159580);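 also: tested at 20 µM; growth read once vehicle control cultures reached saturation at 30 °C; 1 = growth at the plate median or of vehicle wells; lower values mean less growth of the strain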; settings: S. cerevisiae deletion strains, growth OD, locus YJL128C, strain PBS2, hits give low values
Hit rate of the full screen: of about 5,500 compounds, about 2,000 (36%) were called active. Another 18% or so got no clear call; they are omitted. Some of the results follow.
Reported normalized growth values are given for each entry in this list.
Could you respond with only the numeric value?

Some solved entries appear below for comparison.
{"Compound": "O=S(=O)(c1ccc(Cl)cc1)N(Cc1cccnc1)Cc1ccc(Cl)cc1Cl", "normalized growth": 0.958}
{"Compound": "O=C(NCC(c1ccccc1)c1c[nH]c2ccccc12)c1ccc(C(F)(F)F)cc1 (stereo unspecified)", "normalized growth": 0.932}
{"Compound": "Cc1ccc(C)c(CSc2nc(C3CCCCC3)c(C#N)c(=O)[nH]2)c1", "normalized growth": 0.981}
{"Compound": "O=C(CSCc1csc2ccccc12)Nc1ccc(F)c(Cl)c1", "normalized growth": 0.946}
{"Compound": "CC(C)(C)C(=O)N(Cc1cccnc1)Cc1ccc(Cl)cc1Cl", "normalized growth": 0.96}

Consider the record given below.
Query: Give the measured normalized growth for O=C(Nc1ccc(Cl)cc1)SCc1c(Cl)cccc1Cl
Result: 0.92

====

assay: chemical genetic growth profiling, strain panel (AID 1159580); settings: S. cerevisiae deletion strains, growth OD, locus YNL298W, strain CLA4, hits give low values
Among all 5,500 compounds or so, about 2,000 (36%) were called active. Not shown: some 18% with an inconclusive outcome. This is one part of the list. Where a SMILES comes first, the peptide text is derived from it. The star is where a group is joined. For = O=C*
Measure: normalized growth
Could you respond with only the numeric value?

Some solved entries appear below for comparison.
{"Compound": "Nc1c2c(nc3ccccc13)CCCC2O (stereo unspecified)", "normalized growth": 0.988}
{"Compound": "C/C=C(/C)C(=O)OC1CCC2(C)C3CCC4C5(O)CC(O)C6(O)C(CN7CC(C)CCC7C6(C)O)C5(O)CC42OC13O (stereo unspecified)", "normalized growth": 0.967}

Query: Give the measured normalized growth for COC(=O)Nc1nc2ccc(C(=O)c3ccccc3)cc2[nH]1
Result: 1

Query: Give the measured normalized growth for COC(=O)Nc1nc2ccc(Sc3ccccc3)cc2[nH]1
Result: 0.99

Query: Give the measured normalized growth for CC1(C)CC[C@]2(C(=O)O)CC[C@]3(C)C(=CCC4[C@@]5(C)CC[C@@H](O)C(C)(C)C5CC[C@]43C)C2C1 (stereo partly specified)
Result: 1.07

Query: Give the measured normalized growth for COc1c(CC(=O)c2cc3c(cc2O)OC(C)(C)C(O)C3)ccc2c1C=CC(C)(C)O2 (stereo unspecified)
Result: 0.991

Query: Give the measured normalized growth for CC(=O)Nc1ccc(OCC(O)CNC(C)C)cc1 (stereo unspecified)
Result: 1

Query: Give the measured normalized growth for Nc1c2ccccc2nc2ccccc12 (tested in a mixture with another compound)
Result: 0.858

Query: Give the measured normalized growth for CCCOc1ccccc1-c1nc2n[nH]nc2c(=O)[nH]1
Result: 1.02

Query: Give the measured normalized growth for CCC(C)C(NC)C(=O)O (stereo unspecified)
Result: 0.988

Query: Give the measured normalized growth for COc1ccc2[nH]cc(CCN)c2c1
Result: 0.971

Query: Give the measured normalized growth for C#C[C@]1(O)CCC2C3CCC4=CC(=O)CC[C@@H]4C3CC[C@@]21CC (stereo partly specified)
Result: 0.961

Query: Give the measured normalized growth for O=C(COc1ccc(Cl)cc1)N1CCN(Cc2ccc3c(c2)OCO3)CC1
Result: 0.983

Query: Give the measured normalized growth for C/C=C1\[C@H]2C=C(C)C[C@]1(N)c1ccc(=O)[nH]c1C2
Result: 1.02

Query: Give the measured normalized growth for Nc1c2ccccc2nc2ccccc12
Result: 0.847

Query: Give the measured normalized growth for C/C=C(/C)C(=O)O[C@H]1CC[C@@]2(C)[C@@H]3CC[C@H]4[C@]5(O)C[C@H](O)[C@@]6(O)[C@@H](CN7C[C@@H](C)CC[C@H]7[C@@]6(C)O)[C@]5(O)C[C@@]42O[C@]13O
Result: 0.993

Query: Give the measured normalized growth for CSCCC(NC=O)C(=O)NC(Cc1ccccc1)C(=O)O (stereo not drawn) (For-Met-Phe-OH; configuration not given here)
Result: 1.03

====

test: chemical genetic growth profiling, strain panel (AID 1159580); details: S. cerevisiae deletion strains, growth OD, locus YDL192W, strain arf1, hits give low values
The campaign covered roughly 5,500 compounds. About 2,000 (36%) were called active. Roughly 18% stayed inconclusive and do not appear here. The list shows a part of the results.
Reported normalized growth values are given for each entry in this list.

{"Molecule": "CC(=O)O[C@@H]1CC[C@@]2(C)C(CC[C@]3(C)C2CC=C2C4CC(C)(C)CC[C@]4(C(=O)O)CC[C@]23C)C1(C)C (some centres not stated)", "normalized growth": "1.01 (inactive)"}

Query: Give the measured normalized growth for COC(=O)/C(C)=C\CC12OC(C)(C)C3CC(C=C4C(=O)c5c(O)c6c(c(CCC(C)(C)Cl)c5OC431)OC1(C)CCC(=C(C)C)C6C1)C2=O (configuration not stated)
Result: 0.985 (inactive)

====

Reported normalized growth values are given for each entry in this list.
test: chemical genetic growth profiling, strain panel (AID 1159580);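 also: tested at 20 µM; growth read once vehicle control cultures reached saturation at 30 °C; 1 = growth at the plate median or of vehicle wells; lower values mean less growth of the strain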; details: S. cerevisiae deletion strains, growth OD, locus YLR320W, strain mms22, hits give low values
Among all 5,500 compounds or so, about 2,000 (36%) were called active. Another 18% or so got no clear call; they are omitted. This is one part of the list.
Could you respond with only the numeric value?

{"Compound": "NNc1nncc2ccccc12", "normalized growth": 0.991}

Query: Give the measured normalized growth for COc1cccc2c1C(=O)c1c(O)c3c(c(O)c1C2=O)C[C@@](O)(C(=O)CO)C[C@@H]3O[C@H]1C[C@H](N)[C@@H](O)[C@H](C)O1
Result: 0.312

Query: Give the measured normalized growth for C[C@@H]1OC(O[C@H]2C(O[C@H]3CC[C@@]4(C)C(CC[C@]5(C)C4CC=C4C6CC(C)(C)CC[C@]6(C(=O)O)CC[C@]45C)[C@]3(C)CO)OC[C@H](O)[C@@H]2O)[C@H](O)[C@H](O)[C@H]1O (stereo partly drawn)
Result: 0.0834

Query: Give the measured normalized growth for COc1cccc2c1C(=O)c1c(O)c3c(c(O)c1C2=O)C[C@@](O)(C(=O)CO)C[C@@H]3OC1C[C@H](N)[C@H](O)[C@H](C)O1 (stereo partly drawn)
Result: 0.176

====

experiment: chemical genetic growth profiling, strain panel (AID 1159580);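 also: tested at 20 µM; growth read once vehicle control cultures reached saturation at 30 °C; 1 = growth at the plate median or of vehicle wells; lower values mean less growth of the strain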; settings: S. cerevisiae deletion strains, growth OD, locus YHR079C, strain IRE1, hits give low values
The campaign covered roughly 5,500 compounds. About 2,000 (36%) were called active. Another 18% or so got no clear call; they are omitted. The list shows a part of the results.
Reported normalized growth values are given for each entry in this list.
Could you respond with only the numeric value?

Some solved entries appear below for comparison.
{"Compound": "O=C(N/N=C\\c1cc(Br)ccc1O)c1ccccc1Oc1ccccc1", "Value": 0.885}
{"Compound": "O=C(NCCNc1ncc(C(F)(F)F)cc1Cl)C(F)(F)Sc1ccccc1", "Value": 0.994}
{"Compound": "Cc1nc(-c2cccnc2)nc(NCc2ccccc2)c1Cl", "Value": 0.887}

Query: Give the measured normalized growth for C/C=C(/C)C(=O)O[C@H]1CC[C@@]2(C)[C@@H]3CC[C@H]4[C@]5(O)C[C@H](O)[C@@]6(O)[C@@H](CN7C[C@@H](C)CC[C@H]7[C@@]6(C)O)[C@]5(O)C[C@@]42O[C@]13O
Result: 0.969

Query: Give the measured normalized growth for Cc1ccnc(NS(=O)(=O)c2ccc(N)cc2)n1
Result: 0.973

Query: Give the measured normalized growth for Nc1ccccc1C(=O)N/N=C\c1cc(Br)ccc1O
Result: 0.828

Query: Give the measured normalized growth for CC(C)=CCCC1(C)C=Cc2c(O)c3c(c(CC=C(C)C)c2O1)OC12C(=CCCC1C(C)(C)O[C@@]2(C/C=C(\C)C(=O)O)C(=O)O)C3=O (stereo partly drawn)
Result: 0.94

Query: Give the measured normalized growth for CC(C)=CCCC1(C)C=Cc2c(O)c3c(c(CC=C(C)C)c2O1)OC12C(=CC4CC1C(C)(C)OC2(C/C=C(\C)C(N)=O)C4=O)C3=O (stereo not drawn)
Result: 0.933

====

Reported normalized growth values are given for each entry in this list.
assay: chemical genetic growth profiling, strain panel (AID 1159580);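 also: tested at 20 µM; growth read once vehicle control cultures reached saturation at 30 °C; 1 = growth at the plate median or of vehicle wells; lower values mean less growth of the strain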; conditions: S. cerevisiae deletion strains, growth OD, locus YFR010W, strain ubp6, hits give low values
Screen size: about 5,500 compounds; about 2,000 (36%) were called active. Another 18% or so got no clear call; they are omitted. The list shows a part of the results.
Could you respond with only the numeric value?

Some solved entries appear below for comparison.
{"Compound": "NNC(=O)c1ccncc1", "Value": 1.02}
{"Compound": "CC(C)CC(N(C)C)C1(c2ccc(Cl)cc2)CCC1 (configuration not stated)", "Value": 1.02}
{"Compound": "Nc1ccc(S(=O)(=O)Nc2cnc3ccccc3n2)cc1", "Value": 1.04}

Consider the record given below.
Query: Give the measured normalized growth for NC12CC3CC(CC(C3)C1)C2
Result: 1.01
